Molecular target: T1, human glypican-3 (GPC3) (human, UniProt P51654 25-554)
T1 construct: Endogenous on JHH-7, JHH-5, HepG2 and NCI-H446 tumour cells, or transiently expressed on CHO-S cells from a pTT5 plasmid; also called hGPC3; huGPC3
Assay: flow cytometry on JHH-5 cells (GPC3-mid);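 further: antibody binding to cells at 4 °C for 24 h, detected with anti-human AF647 as geometric mean fluorescence of live cells versus antibody concentration, fitted by specific binding with Hill slope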
# pKd listing for each entry below
Field pKd (float): negative decimal logarithm of the concentration in molar.

Measured pKd, H18L6_LC_G34Q mAb, v40208 (antibody, human IgG1, kappa, V domains shown, Full-size IgG1/kappa) VH: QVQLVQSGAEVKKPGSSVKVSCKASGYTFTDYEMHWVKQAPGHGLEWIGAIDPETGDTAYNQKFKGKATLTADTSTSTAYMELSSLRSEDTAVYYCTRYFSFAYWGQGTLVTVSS VL: EIVLTQSPATLSLSPGERATISCRSSQSLRHSNQNTYLQWYQQKPGQAPRLLIYKVSNRFSGVPARFSGSGSGTDFTLTISSLEPEDFAVYFCYQSKHVPYTFGGGTKVEIKR : 9.80

Measured pKd, H18L6_LC_G34H mAb, v40205 (antibody, human IgG1, kappa, V domains shown, M3-H18L6 chains with the stated light chain point mutation, IgG1/kappa) VH: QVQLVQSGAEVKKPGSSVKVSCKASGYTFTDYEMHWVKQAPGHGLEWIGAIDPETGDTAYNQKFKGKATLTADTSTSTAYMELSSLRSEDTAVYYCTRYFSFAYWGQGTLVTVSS VL: EIVLTQSPATLSLSPGERATISCRSSQSLRHSNHNTYLQWYQQKPGQAPRLLIYKVSNRFSGVPARFSGSGSGTDFTLTISSLEPEDFAVYFCYQSKHVPYTFGGGTKVEIKR : 9.80
